Origin of the recorded values: the supplement of paper PMC11451515

- Tested on: SEM cells
- Assay Details: cell viability relative to DMSO control; higher = less cytotoxic
- Measurement Context: RPMI 5 mM glucose + 10% FBS; 48 h; 1.71 µM
cell viability for assorted compounds
Observation Type: cell viability (%)

{"Compound": "CNC(=O)c1ccc(N2C(=S)N(c3ccc(C#N)c(C(F)(F)F)c3)C(=O)C2(C)C)cc1F", "Observation Type": "cell viability", "Assay Result": 72.2}
{"Compound": "C[N]1N=CC2=C1C=C(C(=C2)OC3=CC=C(NC(=O)\\C4=C\\C=C(\\C)N(C4=O)C5=CC=C(F)C=C5)C=C3F)C6=C[NH]N=C6", "Observation Type": "cell viability", "Assay Result": 38.9}
{"Compound": "O=C1CCC[C@@H]2[C@H]3CCC[N+]4([O-])CCC[C@@H](CN12)[C@@H]34 (stereo not given in full)", "Observation Type": "cell viability", "Assay Result": 99.5}
{"Compound": "O=[S+]([O-])(/N=C/c1c(O)ccc2ccccc12)c1cccs1", "Observation Type": "cell viability", "Assay Result": 74.3}
{"Compound": "C=CC(=O)Nc1cccc(Oc2nc(Nc3ccc(N4CCN(C)CC4)cc3OC)ncc2Cl)c1", "Observation Type": "cell viability", "Assay Result": 65.3}
{"Compound": "CCCC(CCC)C(=O)[O-]", "Observation Type": "cell viability", "Assay Result": 125}
{"Compound": "C/C(=C\\c1csc(C)n1)[C@@H]1C[C@@H]2O[C@@H]2CCC[C@H](C)[C@H](O)[C@@H](C)C(=O)C(C)(C)[C@@H](O)CC(=O)O1", "Observation Type": "cell viability", "Assay Result": 13.4}
{"Compound": "O=[S+]([O-])(CCSSCC[S+](=O)([O-])[O][Na])[O][Na]", "Observation Type": "cell viability", "Assay Result": 103}
{"Compound": "CO[C@H]1/C=C/O[C@@]2(C)Oc3c(C)c(O)c4c(O)c(c(/C=N\\N5CCN(C6CCCC6)CC5)c(O)c4c3C2=O)NC(=O)/C(C)=C\\C=C\\[C@H](C)[C@H](O)[C@@H](C)[C@@H](O)[C@@H](C)[C@H](OC(C)=O)[C@@H]1C", "Observation Type": "cell viability", "Assay Result": 2.56}
{"Compound": "CCc1c(O)cc(O)c(C(=O)c2ccc(OCCN3CCOCC3)c(OC)c2)c1CC(=O)N(CCOC)CCOC", "Observation Type": "cell viability", "Assay Result": 91.3}
{"Compound": "COc1cc(NC(=O)c2ccc(-c3ccc(Cl)cc3)o2)cc(OC)c1", "Observation Type": "cell viability", "Assay Result": 86.4}
{"Compound": "Cn1cc(-c2cnn3c(N)c(Br)c([C@@H]4CCCNC4)nc23)cn1", "Observation Type": "cell viability", "Assay Result": 63}
{"Compound": "O=[N+]([O-])c1ccc(Nc2ccccc2-c2ccccc2)c2nonc12", "Observation Type": "cell viability", "Assay Result": 48.9}
{"Compound": "NCCCC(O)(P(=O)(O)O)P(=O)(O)O.O.O.O.[Na+]", "Observation Type": "cell viability", "Assay Result": 101}
{"Compound": "CC1(C)Cc2c(sc(NC(=S)NC(=O)c3ccccc3)c2C(=O)O)CO1", "Observation Type": "cell viability", "Assay Result": 113}
{"Compound": "CN1\\N=N/C2=C(N=C[N]2C1=O)C(N)=O", "Observation Type": "cell viability", "Assay Result": 50.6}
{"Compound": "CC1=CC=C2\\N=C/3N(CC[C@@]3(O)C(=O)C2=C1)C4=CC=CC=C4", "Observation Type": "cell viability", "Assay Result": 94.9}
{"Compound": "COc1cc(Nc2ncc(F)c(Nc3ccc4c(n3)N(COP(=O)(O)O)C(=O)C(C)(C)O4)n2)cc(OC)c1OC", "Observation Type": "cell viability", "Assay Result": 34.7}
{"Compound": "OC(CCN1CCCCC1)(C2CC\\3CC2\\C=C3)C4=CC=CC=C4 (stereo not given)", "Observation Type": "cell viability", "Assay Result": 107}
{"Compound": "C[C@]12CC[C@@H]3c4ccc(O)cc4CC[C@H]3[C@@H]1CC[C@@H]2O", "Observation Type": "cell viability", "Assay Result": 114}
{"Compound": "CCNC(=O)Nc1ccc(-c2nc3c(c(N4CCOC[C@@H]4C)n2)CCN(C2COC2)C3)cc1", "Observation Type": "cell viability", "Assay Result": 55.7}
{"Compound": "COc1cccc(Nc2c(C(N)=O)cnc3c(C)cc([S+](=O)([O-])c4cccc(C(=O)N(C)C)c4)cc23)c1", "Observation Type": "cell viability", "Assay Result": 134}
{"Compound": "OCCNC1CCCc2c1[nH]c1ccc(-c3ccccc3)cc21 (stereo not given)", "Observation Type": "cell viability", "Assay Result": 91.6}
{"Compound": "O=[S+]([O-])(O)c1ccc2cc(/N=N/c3cc([S+](=O)([O-])O)c4cccnc4c3O)ccc2c1", "Observation Type": "cell viability", "Assay Result": 112}
{"Compound": "C[C@H](NC(=O)Cc1cc(F)cc(F)c1)C(=O)N[C@@H]1C(=O)N(C)c2ccccc2-c2ccccc21", "Observation Type": "cell viability", "Assay Result": 16}

###

The following molecules are listed with their measured cell viability values.
- System: NOMO1
- Assay Details: cell viability relative to DMSO control; higher = less cytotoxic
- Measurement Context: RPMI 5 mM glucose + 10% FBS; 48 h; 0.569 µM

{"Molecule": "C/C(=C\\c1csc(C)n1)[C@@H]1C[C@@H]2O[C@]2(C)CCC[C@H](C)[C@H](O)[C@@H](C)C(=O)C(C)(C)[C@@H](O)CC(=O)O1", "Tested On": "NOMO1", "Units Of Measure": "%", "cell viability": 16.8}
{"Molecule": "CCc1ccc(C(=O)Nc2cc(CN3CCN(C)CC3)cc(C(F)(F)F)c2)cc1C#Cc1cnc2ccnn2c1", "Tested On": "NOMO1", "Units Of Measure": "%", "cell viability": 119}
{"Molecule": "CCOC(CN1C(=O)[C@](CC(=O)Nc2ccc(C)cc2)(NC(=O)Nc2ccc(C)cc2)c2ccccc21)OCC", "Tested On": "NOMO1", "Units Of Measure": "%", "cell viability": 123}
{"Molecule": "FC(F)(F)C1=CC=C2C(SCCCCCO\\C3=C\\O\\C(CN4CCOCC4)=C/C3=O)=CC=NC2=C1", "Tested On": "NOMO1", "Units Of Measure": "%", "cell viability": 118}
{"Molecule": "CCCOc1ccc2[nH]c(NC(=O)OC)nc2c1", "Tested On": "NOMO1", "Units Of Measure": "%", "cell viability": 21.1}
{"Molecule": "Cc1ccc(NC(=O)Nc2cc(C(F)(F)F)ccc2F)cc1Nc1ccc2c(c1)NC(=O)/C2=C\\c1ccc[nH]1", "Tested On": "NOMO1", "Units Of Measure": "%", "cell viability": 149}
{"Molecule": "COc1ccc2c(OCc3nnc4ccc(-c5ccccc5)nn34)ccnc2c1", "Tested On": "NOMO1", "Units Of Measure": "%", "cell viability": 117}
{"Molecule": "NC/1=N/C(=O)N(C[C@@H](CO)OC[P](O)(O)=O)/C=C1", "Tested On": "NOMO1", "Units Of Measure": "%", "cell viability": 128}
{"Molecule": "CC(=O)OCC(=O)[C@@]12OC(C)(C)O[C@@H]1C[C@H]3[C@@H]4C[C@H](F)C/5=C/C(=O)/C=C\\[C@]5(C)[C@@]4(F)[C@@H](O)C[C@]23C", "Tested On": "NOMO1", "Units Of Measure": "%", "cell viability": 111}
{"Molecule": "C/C(=C\\c1csc(C)n1)[C@@H]1C[C@@H]2O[C@@H]2CCC[C@H](C)[C@H](O)[C@@H](C)C(=O)C(C)(C)[C@@H](O)CC(=O)O1", "Tested On": "NOMO1", "Units Of Measure": "%", "cell viability": 17.8}
{"Molecule": "CC1(C)Cc2c(sc(NC(=S)NC(=O)c3ccccc3)c2C(=O)O)CO1", "Tested On": "NOMO1", "Units Of Measure": "%", "cell viability": 118}
{"Molecule": "O=[S+]([O-])(CCSSCC[S+](=O)([O-])[O][Na])[O][Na]", "Tested On": "NOMO1", "Units Of Measure": "%", "cell viability": 125}
{"Molecule": "CCCCCCCCOc1ccccc1C(=O)Nc1ccc(C(=O)OCC[N+](C)(CC)CC)cc1", "Tested On": "NOMO1", "Units Of Measure": "%", "cell viability": 90.1}
{"Molecule": "O=[S+]([O-])(O)c1ccc2cc(/N=N/c3cc([S+](=O)([O-])O)c4cccnc4c3O)ccc2c1", "Tested On": "NOMO1", "Units Of Measure": "%", "cell viability": 109}
{"Molecule": "C[N+](C)(C)CC(=O)O.[Cl-]", "Tested On": "NOMO1", "Units Of Measure": "%", "cell viability": 87.8}
{"Molecule": "NC(=O)c1cnc(-c2ccc(C3(N)CCC3)cc2)c(-c2ccccc2)c1", "Tested On": "NOMO1", "Units Of Measure": "%", "cell viability": 128}
{"Molecule": "C=C[C@H]1CN2CCC1C[C@@H]2[C@@H](O)c1ccnc2ccccc12 (some centres not stated)", "Tested On": "NOMO1", "Units Of Measure": "%", "cell viability": 84.9}
{"Molecule": "CN1C2=CC(=O)/C(=N/NC(N)=O)C=C2CC1S(=O)(=O)[O-].[Na+] (configuration not stated)", "Tested On": "NOMO1", "Units Of Measure": "%", "cell viability": 120}
{"Molecule": "O=C(O)CSCC(=O)NC1CCSC1=O (configuration not stated)", "Tested On": "NOMO1", "Units Of Measure": "%", "cell viability": 114}
{"Molecule": "C[C@@H](NCc1cc2ccccc2[nH]1)c1cccc2ccccc12", "Tested On": "NOMO1", "Units Of Measure": "%", "cell viability": 97.4}
{"Molecule": "CO[C@H]1/C=C/O[C@@]2(C)Oc3c(C)c(O)c4c(O)c(c(/C=N\\N5CCN(C6CCCC6)CC5)c(O)c4c3C2=O)NC(=O)/C(C)=C\\C=C\\[C@H](C)[C@H](O)[C@@H](C)[C@@H](O)[C@@H](C)[C@H](OC(C)=O)[C@@H]1C", "Tested On": "NOMO1", "Units Of Measure": "%", "cell viability": 75.1}
{"Molecule": "C=CC(=O)Nc1cccc(Oc2nc(Nc3ccc(N4CCN(C)CC4)cc3OC)ncc2Cl)c1", "Tested On": "NOMO1", "Units Of Measure": "%", "cell viability": 82.1}
{"Molecule": "OCCNC1CCCc2c1[nH]c1ccc(-c3ccccc3)cc21 (configuration not stated)", "Tested On": "NOMO1", "Units Of Measure": "%", "cell viability": 109}
{"Molecule": "CC(C[N+](C)(C)C)OC(N)=O (configuration not stated)", "Tested On": "NOMO1", "Units Of Measure": "%", "cell viability": 108}
{"Molecule": "Cc1cc(-c2nnc3n2CCCCC3)c(C)n1-c1ccccc1", "Tested On": "NOMO1", "Units Of Measure": "%", "cell viability": 118}
{"Molecule": "O=[S+]([O-])(/N=C/c1c(O)ccc2ccccc12)c1cccs1", "Tested On": "NOMO1", "Units Of Measure": "%", "cell viability": 114}
{"Molecule": "C[C@H](NC(=O)Cc1cc(F)cc(F)c1)C(=O)N[C@@H]1C(=O)N(C)c2ccccc2-c2ccccc21", "Tested On": "NOMO1", "Units Of Measure": "%", "cell viability": 116}
